Reference source for all entries: PubChem BioAssay AID1996

Could you please report measured solubility kinetic for the items listed next?
assay.conditions: buffer; pH 7.4; 200.0 µM
Give bare numbers, in µg/mL.

// worked examples, solubility kinetic included
compound | solubility kinetic (µg/mL)
O=C(NC1CCSc2ccccc21)c1ccc(F)cc1 (centres undefined) | 4.9
CCCc1ccc(C(C)NC(=S)NC2CCCCC2)cc1 (centres undefined) | 1.2
O=C(/C=C/c1c(Cl)nc2ccccn12)Nc1ccc(F)cc1 | 4.6
CCS(=O)(=O)N1CCN=C1SC(C)c1ccccc1 (centres undefined) | 41.4
O=C(COC(=O)c1cccs1)Nc1ccccc1Cl | 2.3

Record solubility kinetic per entry; entries follow.
1. CCn1cc(C(=S)N2CCC(C(N)=O)CC2)c2ccccc21
2. CCOC(=O)CN(C(=O)c1ccccc1[N+](=O)[O-])C(C)(C)C

Result ::
1: 38.7; 2: 43.7

Record solubility kinetic per entry; entries follow.
1. COc1ccccc1C(=O)Nc1c(-c2ccccc2)nc2ccccn12
2. O=C(c1ccc2ccccc2n1)N(CCO)Cc1ccccc1
3. CC(=O)c1c(C)[nH]c(C(=O)COC(=O)c2cc(C)oc2C)c1C
4. CC(=O)Nc1ccc(NC2=CC(=O)c3ccccc3C2=O)cc1
5. CC1CCCCC1NC(=O)CCS(=O)(=O)c1ccc(Cl)cc1 (centres undefined)

Result ::
10
41.4
13.1
1.1
22.8
